meta.source: paper PMC12392461

Can you tell me logIC10 for the items I'm about to list?
System: HEK293T (ERα)
Condition Label: human, 24 h
Procedure: Cell culture conditions and bioassay protocols including response detection are provided in Text S2.1–2.4 and Table S3. − Cell viability was determined from cell confluency using an IncuCyte S3 Live-Cell Analysis System (Sartorius AG, Essen, Germany) before and after exposure, except for SH-SY5Y cells (live–dead staining with Nuclear Green LcS1 and propidium iodide, Abcam, UK). […]
Give bare numbers.

Example entries begin here.
Compound: CC(C)CC(C)(c1ccc(O)cc1)c1ccc(O)cc1
Numeric Value: -5.04

Compound: CC(C)(c1ccc(O)cc1)c1ccc(O)cc1 [BPA, 4,4'-(Propane-2,2-diyl)diphenol, reference compound]
Numeric Value: -4.33

Compound: CC(C)Oc1ccc(S(=O)(=O)c2ccc(O)cc2)cc1
Numeric Value: -3.73

Compound: CC(C)(c1cc(Br)c(O)c(Br)c1)c1cc(Br)c(O)c(Br)c1
Numeric Value: -4.81

Turning now to a further compound:
query: Value lookup for logIC10; key = O=S(=O)(c1ccc(O)cc1)c1ccccc1O [2,4-BPS, 2,4'-Dihydroxydiphenyl sulfone]
result: -3.36
